src = PubChem BioAssay (NCI)

tested on: NCI-H23 lung; experiment: NCI tumour cell line growth inhibition, 48 h
Items are presented alongside their recorded TGI.

# COMPOUND, TGI
records = [
    ("CCOc1ccccc1NC(=O)C1=C(C)NC(C)=C(C(=O)Nc2ccccc2OCC)C1c1cccc([N+](=O)[O-])c1", "> 100 µM"),
    ("Cc1ccc(C)c2c1n1c(=O)n(C)c(=O)n21", "> 100 µM"),
    ("O=C1C=CC(=O)c2c(O)c(N(CCCl)CCCl)c(Cl)c(O)c21", "> 8.05 µM"),
    ("Cc1cc(OCc2nnc3n2N=C(c2cc(F)c(Cl)cc2Cl)/C(=C/c2ccc(-c4ccc(Cl)cc4)o2)S3)ccc1Cl", "> 50 µM"),
    ("CCCCOP1(=O)CC(C)=C(Cl)C(C)(OC)C1 (configuration not stated)", "> 100 µM"),
    ("c1ccc(OCc2nnc(CCCCCCCCc3nnc(COc4ccccc4)o3)o2)cc1", "> 100 µM"),
    ("CSc1nc(-c2ccccc2)nc(=[N+]2CCOCC2)s1", "> 100 µM"),
]
